# protocol-text: CFU-GM colony formation, human bone marrow
# Type: cell-based
# reported-conditions: bone marrow CFU-GM progenitor cells
measured-metric: IC90

Problem: Input O=C(O)/C=C/c1ccc(-c2ccc(O)c(C34CC5CC(CC(C5)C3)C4)c2)c(Cl)c1 [Example 3-Cl-AHPC] , output reported IC90.
Solution: > 15 µM

###

# protocol-text: CFU-GM colony formation, mouse bone marrow
# Assay type: cell-based
# reported-conditions: mouse, bone marrow CFU-GM progenitor cells
measured-metric: IC90

Problem: Input O=C(O)/C=C/c1ccc(-c2ccc(O)c(C34CC5CC(CC(C5)C3)C4)c2)c(Cl)c1 [Example 3-Cl-AHPC] , output reported IC90.
Solution: 315 to 794 nM
